Values were extracted from the supplement of paper PMC5844555.

Test system: MYT1L
Test: 3' UTR reporter interaction score (median-centred robust z-score of log2 firefly/Renilla activity); higher = less repression of the 3' UTR reporter
Settings: HEK293T; 48 h
Item-by-item account of 3' UTR reporter interaction score
measuredAttribute: 3' UTR reporter interaction score

> print(dat)
                     seqtext                  measuredattribute  valueobserved
 1     UCCCUGUCCUCCAGGAGCUCA  3' UTR reporter interaction score         -0.918
 2     UGAAGGUCUACUGUGUGCCAG  3' UTR reporter interaction score          -2.06
 3      GCGUGCGCCGGCCGGCCGCC  3' UTR reporter interaction score         -0.142
 4     UUGAAACAAUCUCUACUGAAC  3' UTR reporter interaction score            0.3
 5  AACUGGCCCUCAAAGUCCCGCUUU  3' UTR reporter interaction score         -0.278
 6    AACAUUCAUUGCUGUCGGUGGG  3' UTR reporter interaction score         -0.567
 7     AAUAAUACAUGGUUGAUCUUU  3' UTR reporter interaction score         -0.318
 8     AUCACAUUGCCAGGGAUUUCC  3' UTR reporter interaction score          0.197
 9  GUCCAGUUUUCCCAGGAAUCCCUU  3' UTR reporter interaction score          0.164
10     AGUUAAUGAAUCCUGGAAAGU  3' UTR reporter interaction score          -0.25
11    UUUUUGCGAUGUGUUCCUAAUA  3' UTR reporter interaction score          0.157
12     CCCAGAUAAUGGCACUCUCAA  3' UTR reporter interaction score         0.0372
13      AUUGACACUUCUGUGAGUAG  3' UTR reporter interaction score          0.508
14      GUCCGCUCGGCGGUGGCCCA  3' UTR reporter interaction score          0.878
15    AGGCAGUGUAUUGUUAGCUGGC  3' UTR reporter interaction score          0.156
16      GUUGUGUCAGUUUAUCAAAC  3' UTR reporter interaction score          -0.86
17    UUUGUGACCUGGUCCACUAACC  3' UTR reporter interaction score         -0.568
18   ACUUACAGACAAGAGCCUUGCUC  3' UTR reporter interaction score          -1.75
19    UCGGGGAUCAUCAUGUCACGAG  3' UTR reporter interaction score          -0.88
20    GUCCCUCUCCAAAUGUGUCUUG  3' UTR reporter interaction score         -0.216
21   AAUGGCGCCACUAGGGUUGUGCA  3' UTR reporter interaction score       -0.00801
22     AAAACGGUGAGAUUUUGUUUU  3' UTR reporter interaction score         -0.225
23    UGAGAACUGAAUUCCAUGGGUU  3' UTR reporter interaction score          0.806
24    GUGAAAUGUUUAGGACCACUAG  3' UTR reporter interaction score          0.987
25    UGUAACAGCAACUCCAUGUGGA  3' UTR reporter interaction score         -0.161
26    ACUCAAAAUGGGGGCGCUUUCC  3' UTR reporter interaction score         0.0549
27    CCUCUAGAUGGAAGCACUGUCU  3' UTR reporter interaction score         -0.377
28     AAAGUGCUUCCUUUUAGAGGG  3' UTR reporter interaction score         -0.373
29     AUCACAUUGCCAGGGAUUACC  3' UTR reporter interaction score          0.363
30  ACUGGGGGCUUUCGGGCUCUGCGU  3' UTR reporter interaction score         0.0192
31     GUGGCUGCACUCACUUCCUUC  3' UTR reporter interaction score           1.48
32   CAAAGUGCUCAUAGUGCAGGUAG  3' UTR reporter interaction score          -1.37
33       AGCUGUCUGAAAAUGUCUU  3' UTR reporter interaction score          0.171
